Overview of reported Binding Capacity across a group of substances:
# Test system: monoclonal antibody MV-001
# measurement_description: In vitro binding assay (ELISA), parental antibody MV-001
# Design: species or system C57/Bl6 mice
# stated_conditions: peptide-BSA on ELISA plate; OD halfmax, dilution factor 1:X of parental AB MV-001

{"substance": "TEFRHKAC [p4753]", "Binding Capacity": "3 (strong binding :>20000)"}
{"substance": "TSVFRHC [p4383]", "Binding Capacity": "3 (strong binding :>20000)"}
{"substance": "DGLLFKHC [p4741]", "Binding Capacity": "3 (strong binding :>20000)"}
{"substance": "APIQFRHC [p4750]", "Binding Capacity": "3 (strong binding :>20000)"}
{"substance": "HEPLFSHC [p4719]", "Binding Capacity": "1 (weak binding :<4000)"}
{"substance": "SPNQFRHC [p4707]", "Binding Capacity": "3 (strong binding :>20000)"}
{"substance": "ILFRHGC [p4390]", "Binding Capacity": "3 (strong binding :>20000)"}
{"substance": "LMFRHNC [p4386]", "Binding Capacity": "3 (strong binding :>20000)"}
{"substance": "TSTEMWHC [p4754]", "Binding Capacity": "1 (weak binding :<4000)"}
{"substance": "TPLMFWHC [p4733]", "Binding Capacity": "1 (weak binding :<4000)"}
{"substance": "CSEFKH [p4800]", "Binding Capacity": "3 (strong binding :>20000)"}
{"substance": "ADHDFRHC [p4740]", "Binding Capacity": "3 (strong binding :>20000)"}
{"substance": "THTDFRHC [p4725]", "Binding Capacity": "3 (strong binding :>20000)"}
{"substance": "NWFPHPC [p4392]", "Binding Capacity": "1 (weak binding :<4000)"}
{"substance": "HEFRHC [p4803]", "Binding Capacity": "3 (strong binding :>20000)"}
{"substance": "ATPLFRHC [p4723]", "Binding Capacity": "3 (strong binding :>20000)"}
{"substance": "SNFRHSVC [p4749]", "Binding Capacity": "3 (strong binding :>20000)"}
{"substance": "SAGSFRHC [p4710]", "Binding Capacity": "3 (strong binding :>20000)"}
